Recorded measurements of inhibition, one per entry
# assay_procedure: growth inhibition, single agents and combos, LFS_MB_2R, cell-based, cisplatin combos, synergistic combos for chromothripsis tumors (AID 1671457);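 further: cells exposed to compound for four days before readout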
# experimental_context: LFS_MB_2R medulloblastoma cells, measured here: combination with cisplatin, at 0.5 µM, stronger effect = higher value
Form entry: value (%) — number only.

Illustrative cases are given below, each with its answer.
// lookup inhibition for Cc1cc(C)cc(C(=O)NOCCCCCC(=O)NO)c1
32.9

Please give the result for C[C@@H]1O[C@@H](O[C@@H]2[C@@H](O)[C@H](OCCc3ccc(O)c(O)c3)O[C@H](CO)[C@H]2OC(=O)C=Cc2ccc(O)c(O)c2)[C@H](O)[C@H](O)[C@H]1O too.
-31.6

Please give the result for CC(C=CC(=O)NO)=CC(C)C(=O)c1ccc(N(C)C)cc1 (stereo not drawn) too.
92.3

Please give the result for NC(=S)NN=Cc1ncccc1N too.
-11.4

Please give the result for C=C(NC(=O)C(=C)NC(=O)c1csc(C2=NC3c4csc(n4)C4NC(=O)c5csc(n5)C(C(C)(O)C(C)O)NC(=O)C5CSC(=N5)/C(=C/C)NC(=O)C(C(C)O)NC(=O)c5csc(n5)C3(CC2)NC(=O)C(C)NC(=O)C(=C)NC(=O)C(C)NC(=O)C(C(C)CC)NC2C=Cc3c(C(C)O)cc(nc3C2O)C(=O)OC4C)n1)C(N)=O (stereo not drawn) too.
-29.7

Please give the result for Cc1ccc([N+](=O)[O-])cc1S(=O)(=O)N(C)/N=C\c1cnc2ccc(Br)cn12 too.
92.7

New cases:
// lookup inhibition for COc1ccccc1S(=O)(=O)Nc1ccc2c(c1)CN(C)C(=O)N2
-4.41

Please give the result for COc1ccc(-c2nc(-c3cc(C(F)(F)F)cc(C(F)(F)F)c3)n(Cc3ccc(C(N)=O)cc3)c2-c2ccc(OC)cc2)cc1 too.
-7.64

Please give the result for Cc1cc(C=CC#N)cc(C)c1Nc1ccnc(Nc2ccc(C#N)cc2)n1 too.
-13.5

Please give the result for Cn1cnc2[nH]c(=O)[nH]c(=O)c21 too.
-10.9

Please give the result for O=C(O)c1cc2cccc([N+](=O)[O-])c2[nH]1 too.
-28.5

Please give the result for CC1OC(CC(=O)O)CC2=C1C(=O)c1c(O)cccc1C2=O (stereo not drawn) too.
105

Please give the result for Cc1c(Br)cc(NCC(=O)N/N=C/c2cc([N+](=O)[O-])ccc2O)cc1Br too.
-18.6
